Biological target: UniProt:P01375
pKd: −log10 of the molar value.
Outcome label depends on pKd relative to 7: at/above gives Criterion met, below gives Criterion not met.

## Input Does the reported pKd for C[C@@H]1CN(c2ncc(-c3ccc4c(c3)N(Cc3cccnc3C#N)C(C)(C)C4=O)cn2)CCN1C(=O)CO fall at or above the 7 mark?
## Output Criterion met

New cases:
## Input Does the reported pKd for CC1(C)C(=O)c2ccc(-c3cnc(N4CCN5C(=O)NC[C@@H]5C4)nc3)cc2N1Cc1cccnc1C#N fall at or above the 7 mark?
## Output Criterion met

## Input Subsequent entry: Cc1ccc(Cn2cnc3ccccc32)c(C)c1
## Output Criterion not met

## Input Subsequent entry: CN1CCN(Cc2ccc(-c3c[nH]c4ccncc34)c(OCCc3ccc(-c4cccc5ccncc45)cc3)c2)CC1
## Output Criterion met

## Input Subsequent entry: N#CCc1ccc(-c2cccc3ccncc23)cc1
## Output Criterion not met

## Input Subsequent entry: Cc1nc2ccccc2n1Cc1ccccc1
## Output Criterion not met

###

Measured IC50 of individual entries
Biological target: Tumor necrosis factor (Homo sapiens, UniProt P01375)
Sequence (P01375 whole entry): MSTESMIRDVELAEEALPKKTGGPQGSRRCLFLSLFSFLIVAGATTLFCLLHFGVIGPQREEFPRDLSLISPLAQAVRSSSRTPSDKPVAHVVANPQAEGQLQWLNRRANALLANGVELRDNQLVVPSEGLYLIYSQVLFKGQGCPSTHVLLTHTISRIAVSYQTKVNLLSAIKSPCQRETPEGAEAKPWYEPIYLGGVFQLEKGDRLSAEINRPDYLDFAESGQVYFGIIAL
Provide only the numeric value, understood in nM.

## Input Which measured IC50 value corresponds to c1ccc(Cn2cnc3ccccc32)cc1 ?
## Output 204000

## Input Subsequent entry: c1ccc(-c2cccc3ccncc23)c(OCCc2ccc(-c3cccc4ccncc34)cc2)c1
## Output 1350

## Input Subsequent entry: N#CCc1ccc(-c2cccc3ccncc23)cc1
## Output 7960

New cases:
## Input Which measured IC50 value corresponds to CC1(C)C(=O)c2ccc(-c3cnc(N4CCN5C(=O)NC[C@@H]5C4)nc3)cc2N1Cc1cccnc1C#N ?
## Output 71

## Input Subsequent entry: c1ccc(-c2cccc3ccncc23)cc1
## Output 25300

## Input Subsequent entry: CN1CCN(Cc2ccc(-c3c[nH]c4ccncc34)c(OCCc3ccc(-c4cccc5ccncc45)cc3)c2)CC1
## Output 29

## Input Subsequent entry: C[C@@H]1CN(c2ncc(-c3ccc4c(c3)N(Cc3ccccc3OC(F)F)C(C)(C)C4=O)cn2)CCN1C(=O)CO
## Output 189

## Input Subsequent entry: C[C@@H]1CN(c2ncc(-c3ccc4c(c3)N(Cc3cccnc3C#N)C(C)(C)C4=O)cn2)CCN1C(=O)CO
## Output 163

###

Test: Cmax in DBA/J mouse model of CFA and glucose-6-phosphate isomerase-induced arthritis model at 10 mg/kg, po BID beginning 1 hr prior to GPI immunization and measured up to day 17 after GPI immunization by HPLC-MS/MS analysis
Type: ADME, organism-based
Set-up: route oral, time 17 day, dose 10 mg/kg
Settings: in vivo
Value type: Cmax (ng/mL)
Provide only the numeric value, understood in ng/mL.

## Input Which measured Cmax value corresponds to CC1(C)C(=O)c2ccc(-c3cnc(N4CCN5C(=O)NC[C@@H]5C4)nc3)cc2N1Cc1cccnc1C#N ?
## Output 767

###

Test: Half life in CD1 mouse at 1 mg/kg, po after 24 hrs by HPLC-MS/MS analysis
Assay type: ADME, organism-based
Conditions: in vivo
Value type: half-life (h)
Provide only the numeric value, understood in h.

// solved cases for half-life follow
## Input Which measured half-life value corresponds to C[C@@H]1CN(c2ncc(-c3ccc4c(c3)N(Cc3ccccc3OC(F)F)C(C)(C)C4=O)cn2)CCN1C(=O)CO ?
## Output 4.7

## Input Subsequent entry: CC1(C)C(=O)c2ccc(-c3cnc(N4CCN5C(=O)NC[C@@H]5C4)nc3)cc2N1Cc1cccnc1C#N
## Output 1.6

Next item in the queue.
## Input Which measured half-life value corresponds to C[C@@H]1CN(c2ncc(-c3ccc4c(c3)N(Cc3cccnc3C#N)C(C)(C)C4=O)cn2)CCN1C(=O)CO ?
## Output 2

Origin of the recorded values: ChEMBL document CHEMBL4765484
